system: CAL-51; assay: normalised response (% of control), CellTiter-Glo; higher = more viable cells (100 = DMSO, 0 = benzethonium chloride kill control); settings: incubation time: 72 h
reported-endpoint: normalised response

**Query** Param item = CCC1(c2ccc(N)cc2)CCC(=O)NC1=O (stereo not drawn) [Aminoglutethimide] (1 nM) ; retrieve measured normalised response.
**Result** 112%

**Query** Reported normalised response, molecule Clc1ccc(Nc2nnc(Cc3ccncc3)c3ccccc23)cc1 [Vatalanib] (1000 nM) : ____
**Result** 94.4%

**Query** Reported normalised response for COc1cc2ncnc(Nc3ccc(F)c(Cl)c3)c2cc1NC(=O)/C=C/CN1CCCCC1 [Dacomitinib] (0.1 nM) : what is it?
**Result** 71.8%

**Query** Item CO[C@H]1/C=C\C=C(/C)C(=O)NC2=CC(=O)C(NCCN(C)C)=C(C[C@@H](C)C[C@H](OC)[C@H](O)[C@@H](C)/C=C(\C)[C@@H]1OC(N)=O)C2=O [Alvespimycin] (100 nM) has what recorded normalised response?
**Result** 26.7%

**Query** Please look up its normalised response: N#CCNC(=O)c1ccc(-c2ccnc(Nc3ccc(N4CCOCC4)cc3)n2)cc1 [Momelotinib] (1 nM)
**Result** 128%

**Query** Return reported normalised response; argument: Cc1ccc(-n2nc(C(C)(C)C)cc2NC(=O)Nc2ccc(OCCN3CCOCC3)c3ccccc23)cc1 [Doramapimod] (1000 nM)
**Result** 111%

**Query** Entry O=C(CCCCCCC(=O)Nc1ccc([C@H]2O[C@@H](CSc3nc(-c4ccccc4)c(-c4ccccc4)o3)C[C@@H](c3ccc(CO)cc3)O2)cc1)NO [Tubacin] (10 nM) : reported normalised response = ?
**Result** 110%

**Query** Endpoint output: normalised response of Cc1ccc(-n2nc(C(C)(C)C)cc2NC(=O)Nc2ccc(OCCN3CCOCC3)c3ccccc23)cc1 [Doramapimod] (1 nM) . Value?
**Result** 83.7%

**Query** What value of measured normalised response is listed for CO[C@H]1/C=C\C=C(/C)C(=O)NC2=CC(=O)C(NCCN(C)C)=C(C[C@@H](C)C[C@H](OC)[C@H](O)[C@@H](C)/C=C(\C)[C@@H]1OC(N)=O)C2=O [Alvespimycin] (1 nM) ?
**Result** 112%

**Query** Need normalised response of Cn1c(CCCC(=O)O)nc2cc(N(CCCl)CCCl)ccc21 [Bendamustine] (1 nM) , thanks.
**Result** 75.8%

**Query** If you can, please state the reported normalised response value of CN(N=O)C(=O)N[C@@H](C=O)[C@@H](O)[C@H](O)[C@H](O)CO [Streptozocin] (1 nM) .
**Result** 80.8%

**Query** Name the recorded normalised response for N.N.[Cl][Pt][Cl] [Cisplatin] (0.1 nM) .
**Result** 115%

**Query** Recorded normalised response for CNCc1ccc(-c2[nH]c3cc(F)cc4c3c2CCNC4=O)cc1 [Rucaparib] (1000 nM) , please?
**Result** 106%

**Query** # normalised response lookup, item O=C1CCC(N2C(=O)c3ccccc3C2=O)C(=O)N1 (stereo not drawn) [Thalidomide] (1000 nM)
**Result** 120%

**Query** Looking for the measured normalised response of CC(C)Cn1cnc2c(N)nc3ccccc3c21 [Imiquimod] (250 nM) , can you help?
**Result** 99%

**Query** Query (molecule): COc1cc2nccc(Oc3ccc(NC(=O)C4(C(=O)Nc5ccc(F)cc5)CC4)cc3)c2cc1OC [Cabozantinib] (0.1 nM) ; field requested: normalised response
**Result** 87.8%

**Query** Give its normalised response value. Item: C[C@]12CC[C@@H]3c4ccc(O)cc4C[C@@H](CCCCCCCCC[S+]([O-])CCCC(F)(F)C(F)(F)F)[C@H]3[C@@H]1CC[C@@H]2O (stereo partly drawn) [Fulvestrant] (1 nM)
**Result** 119%

**Query** # input molecule: CCC1=C[C@@H]2CN(C1)Cc1c([nH]c3ccccc13)[C@@](C(=O)OC)(c1cc3c(cc1OC)N(C)[C@H]1[C@@](O)(C(=O)OC)[C@H](OC(C)=O)[C@]4(CC)C=CCN5CC[C@]31[C@@H]54)C2 [Vinorelbine] (1000 nM) ; wanted: its normalised response
**Result** 26.7%

**Query** Data request, read-out normalised response, for N[C@@H](CSC(c1ccccc1)(c1ccccc1)c1ccccc1)C(=O)O [S-trityl-L-cysteine] (4 nM)
**Result** 81%

**Query** Entry C=C(c1ccc(C(=O)O)cc1)c1cc2c(cc1C)C(C)(C)CCC2(C)C [Bexarotene] (1 nM) : reported normalised response = ?
**Result** 105%

**Query** Please give the measured normalised response for this molecule: O=P1(NCCCl)OCCCN1CCCl (stereo not drawn) [Ifosfamide] (10 nM)
**Result** 118%

**Query** Quick one: normalised response for C[C@]12CC[C@@H]3c4ccc(O)cc4C[C@@H](CCCCCCCCC[S+]([O-])CCCC(F)(F)C(F)(F)F)[C@H]3[C@@H]1CC[C@@H]2O (stereo partly drawn) [Fulvestrant] (0.1 nM) ?
**Result** 123%

**Query** Which normalised response is listed for O=C(O)c1ccc(-c2c[nH]c3ncc(-c4ccccc4)cc23)cc1C1CCCC1 (1 nM) ?
**Result** 125%

**Query** May I ask what normalised response has been recorded for CN[C@@H]1C[C@H]2O[C@@](C)([C@@H]1OC)n1c3ccccc3c3c4c(c5c6ccccc6n2c5c31)C(=O)N[C@H]4O [UCN-01] (1000 nM) ?
**Result** 11.8%

**Query** Name the recorded normalised response for COc1cc2ncnc(Nc3ccc(F)c(Cl)c3)c2cc1NC(=O)/C=C/CN1CCCCC1 [Dacomitinib] (1 nM) .
**Result** 108%

**Query** I would be grateful if you could share the reported normalised response for O=C(CCCCCCC(=O)Nc1ccc([C@H]2O[C@@H](CSc3nc(-c4ccccc4)c(-c4ccccc4)o3)C[C@@H](c3ccc(CO)cc3)O2)cc1)NO [Tubacin] (1 nM) .
**Result** 119%

**Query** Given the molecule Cn1c(Nc2ccc(C(F)(F)F)cc2)nc2cc(Oc3ccnc(-c4ncc(C(F)(F)F)[nH]4)c3)ccc21 [RAF265] (1 nM) , what is its reported normalised response?
**Result** 111%

**Query** Return reported normalised response; argument: CN(N=O)C(=O)N[C@@H](C=O)[C@@H](O)[C@H](O)[C@H](O)CO [Streptozocin] (10 nM)
**Result** 77.4%
